Reported log10 IC50 for target or system human V1a receptor (Homo sapiens), by entry.
Values are log10 of IC50 in nM.

Look up log10 IC50 for this molecule: CN(Cc1cc(Cl)cc(Cl)c1)C(=O)C(CCC(=O)N1CCN(C2CCCCC2)CC1)N1C(=O)C(N2C(=O)OCC2c2ccccc2)C1C=Cc1ccccc1 (stereo not drawn) [Example 221E]
1.31

Look up log10 IC50 for this molecule: O=C(CC(C(=O)NCc1cccc(C(F)(F)F)c1)N1C(=O)C(N2C(=O)OCC2c2ccccc2)C1C=Cc1ccccc1)NC1CCN(Cc2ccccc2)CC1 (stereo not drawn) [Example 63]
0.26

Look up log10 IC50 for this molecule: CCCCN1CCN(C(=O)CCC(C(=O)NCc2cccc(C(F)(F)F)c2)N2C(=O)C(N3C(=O)OCC3c3ccccc3)C2C(Cl)=Cc2ccccc2)CC1 (stereo not drawn)
0.18

Look up log10 IC50 for this molecule: O=C(CC[C@@H](C(=O)NCc1cccc(C(F)(F)F)c1)N1C(=O)[C@@H](N2C(=O)OC[C@@H]2c2ccccc2)[C@H]1/C=C/c1ccccc1)NCCN1CCCCC1
1.18

Look up log10 IC50 for this molecule: O=C(NC1(c2ccccc2)CCCCC1)C(CCC(=O)N1CCN(C2CCCCC2)CC1)N1C(=O)C(N2C(=O)OCC2c2ccccc2)C1C=Cc1ccccc1 (stereo not drawn) [Example 221G]
0.18

Look up log10 IC50 for this molecule: CN(Cc1cccc(Cl)c1)C(=O)C(CCC(=O)N1CCN(C2CCCCC2)CC1)N1C(=O)C(N2C(=O)OCC2c2ccccc2)C1C=Cc1ccccc1 (stereo not drawn) [Example 221C]
0.48

---

Reported pIC50 for target or system human V1a receptor (Homo sapiens), by entry.
Please keep in mind that pIC50 is minus log10 of the molar concentration; only the number is needed.

# value lookup — system human V1a receptor (Homo sapiens), readout pIC50, item CN(Cc1cccc(Br)c1)C(=O)C(CCC(=O)N1CCN(C2CCCCC2)CC1)N1C(=O)C(N2C(=O)OCC2c2ccccc2)C1C=Cc1ccccc1 (stereo not drawn) [Example 221D]
8.62

# value lookup — system human V1a receptor (Homo sapiens), readout pIC50, item O=C(CC(C(=O)NCc1cccc(C(F)(F)F)c1)N1C(=O)C(N2C(=O)OCC2c2ccccc2)C1C=Cc1ccccc1)NC1CCN(Cc2ccccc2)CC1 (stereo not drawn) [Example 134C]
8.04

# value lookup — system human V1a receptor (Homo sapiens), readout pIC50, item O=C(CCC(C(=O)N1CCc2ccccc2C1)N1C(=O)C(N2C(=O)OCC2c2ccccc2)C1C=Cc1ccccc1)N1CCN(C2CCCCC2)CC1 (stereo not drawn) [Example 221O]
8.08

# value lookup — system human V1a receptor (Homo sapiens), readout pIC50, item O=C(N[C@@H]1CCCc2ccccc21)[C@H](CCC(=O)N1CCN(C2CCCCC2)CC1)N1C(=O)[C@@H](N2C(=O)OC[C@@H]2c2ccccc2)[C@H]1/C=C/c1cccc([N+](=O)[O-])c1 [Example 249]
8.77

# value lookup — system human V1a receptor (Homo sapiens), readout pIC50, item O=C(NCc1cccc(C(F)(F)F)c1)C(CC(=O)N1CCC(CCN2CCCCC2)CC1)N1C(=O)C(N2C(=O)OCC2c2ccccc2)C1C=Cc1ccccc1 (stereo not drawn) [Example 86A]
8.01

# value lookup — system human V1a receptor (Homo sapiens), readout pIC50, item O=C(NCc1cccc(C(F)(F)F)c1)C(CCC(=O)N1CCC(CCN2CCCCC2)CC1)N1C(=O)C(N2C(=O)OCC2c2ccccc2)C1C=Cc1ccccc1 (stereo not drawn) [Example 120A]
7.79

---

- system: human V1a receptor (Homo sapiens)
- Construct: host or cells: CHO cells (hV1a cell line)
- Sequence (P37288 whole entry): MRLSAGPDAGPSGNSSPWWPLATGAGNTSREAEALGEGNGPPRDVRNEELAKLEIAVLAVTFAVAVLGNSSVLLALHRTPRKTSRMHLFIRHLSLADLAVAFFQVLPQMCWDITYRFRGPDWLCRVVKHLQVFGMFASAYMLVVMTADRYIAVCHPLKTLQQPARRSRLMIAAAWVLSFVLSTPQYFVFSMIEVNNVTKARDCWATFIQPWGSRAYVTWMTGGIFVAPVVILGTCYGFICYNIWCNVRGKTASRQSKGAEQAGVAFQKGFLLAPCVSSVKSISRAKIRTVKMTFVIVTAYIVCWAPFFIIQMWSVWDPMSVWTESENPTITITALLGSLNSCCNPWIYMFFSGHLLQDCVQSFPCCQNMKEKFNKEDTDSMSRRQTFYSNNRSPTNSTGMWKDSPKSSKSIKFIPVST
- protocol_summary: Human vasopressin V1a receptor binding assay (3H-AVP competition, hV1a CHO cells)
- run_conditions: 3H-AVP competition, CHO cells expressing human V1a; read-out: V1a Ki
measured_endpoint: Ki (nM)
Write it as a number; the unit nM goes unstated.

# value lookup — system human V1a receptor (Homo sapiens), readout Ki, item CC(C)N1CCN(C(=O)CCC(C(=O)NCc2cccc(C(F)(F)F)c2)N2C(=O)C(N3C(=O)OCC3c3ccccc3)C2C(Cl)=Cc2ccccc2)CC1 (stereo not drawn)
4.33

# value lookup — system human V1a receptor (Homo sapiens), readout Ki, item O=C(N[C@@H]1CCCc2ccccc21)[C@H](CCC(=O)N1CCN(C2CCCCC2)CC1)N1C(=O)[C@@H](N2C(=O)OC[C@@H]2c2ccccc2)[C@H]1/C=C/c1cc(Cl)cc(Cl)c1
1.1

# value lookup — system human V1a receptor (Homo sapiens), readout Ki, item O=C(NCc1cccc(C(F)(F)F)c1)C(CCC(=O)N1CCN(C2CCCCC2)CC1)N1C(=O)C(N2C(=O)OCC2c2ccccc2)C1C=Cc1ccccc1 (stereo not drawn)
5.84

# value lookup — system human V1a receptor (Homo sapiens), readout Ki, item CCN1CCN(C(=O)CCC(C(=O)NC2CCCc3ccccc32)N2C(=O)C(N3C(=O)OCC3c3ccccc3)C2C=Cc2ccccc2)CC1 (stereo not drawn) [Example 221BD]
1.66

# value lookup — system human V1a receptor (Homo sapiens), readout Ki, item O=C(NC1(c2ccccc2F)CCCC1)C(CCC(=O)N1CCN(C2CCCCC2)CC1)N1C(=O)C(N2C(=O)OCC2c2ccccc2)C1C=Cc1ccccc1 (stereo not drawn) [Example 221H]
2.5

# value lookup — system human V1a receptor (Homo sapiens), readout Ki, item O=C(NC1(c2ccccc2)CCCC1)C(CC(=O)N1CCC(N2CCCCC2)CC1)N1C(=O)C(N2C(=O)OCC2c2ccccc2)C1C=Cc1ccccc1 (stereo not drawn) [Example 132D]
3.9

---

- system: human V1a receptor (Homo sapiens)
Provide the reported IC50 of each item.
Write it as a number; the unit nM goes unstated.

Look up IC50 for this molecule: O=C(NCc1cccc(C(F)(F)F)c1)C(CCC(=O)N1CCN(CCc2ccccc2)CC1)N1C(=O)C(N2C(=O)OCC2c2ccccc2)C1C=Cc1ccccc1 (stereo not drawn)
11

Look up IC50 for this molecule: O=C(C(COCc1ccccc1)N1C(=O)C(N2C(=O)OCC2c2ccccc2)C1C=Cc1ccccc1)N1CCN(C2CCCCC2)CC1 (stereo not drawn) [Example 232D]
2.04

Look up IC50 for this molecule: CC(C)(NC(=O)C(CC(=O)N1CCC(N2CCCCC2)CC1)N1C(=O)C(N2C(=O)OCC2c2ccccc2)C1C=Cc1ccccc1)c1ccccc1 (stereo not drawn) [Example 134J]
5.29

Look up IC50 for this molecule: O=C(NCc1cccc(C(F)(F)F)c1)C(C(=O)NC1CCN(Cc2ccccc2)CC1)N1C(=O)C(N2C(=O)OCC2c2ccccc2)C1C=Cc1ccccc1 (stereo not drawn)
23

Look up IC50 for this molecule: O=C([C@@H](COCc1ccccc1)N1C(=O)[C@@H](N2C(=O)OC[C@@H]2c2ccccc2)[C@H]1/C=C/c1ccccc1)N1CCC(CN2CCCCC2)CC1 [Example 232E]
0.28

Look up IC50 for this molecule: O=C(NCc1cccc(C(F)(F)F)c1)C(CC(=O)N1CCC(CCN2CCCCC2)CC1)N1C(=O)C(N2C(=O)OCC2c2ccccc2)C1C=Cc1ccccc1 (stereo not drawn) [Example 134A]
12.9

---

- system: human V1a receptor (Homo sapiens)
- Construct: host or cells: CHO cells (hV1a cell line)
- protocol_summary: Human vasopressin V1a receptor binding assay (3H-AVP competition, hV1a CHO cells)
- run_conditions: 3H-AVP competition, CHO cells expressing human V1a; read-out: V1a Ki
# strict inequality: Ki < 1 nM yields met, everything else yields not met

Please let me know if CCN1CCN(C(=O)CCC(C(=O)NCc2cccc(C(F)(F)F)c2)N2C(=O)C(N3C(=O)OCC3c3ccccc3)C2C(Cl)=Cc2ccccc2)CC1 (centres unmarked) shows Ki below 1 nM.
not met

Please let me know if O=C(NC(c1ccccc1)C(F)(F)F)C(CC(=O)N1CCC(N2CCCCC2)CC1)N1C(=O)C(N2C(=O)OCC2c2ccccc2)C1C=Cc1ccccc1 (single isomer, unassigned) [Example 626] shows Ki below 1 nM.
met

Please let me know if O=C(NC(c1ccccc1)C(F)(F)F)C(CC(=O)N1CCC(N2CCCCC2)CC1)N1C(=O)C(N2C(=O)OCC2c2ccccc2)C1C=Cc1ccccc1 (single isomer, unassigned) [Example 623] shows Ki below 1 nM.
met

Please let me know if O=C(N[C@@H]1CCCc2ccccc21)[C@H](CCC(=O)N1CCN(C2CCCCC2)CC1)N1C(=O)[C@@H](N2C(=O)OC[C@@H]2c2ccccc2)[C@H]1/C=C/c1ccccc1Cl shows Ki below 1 nM.
not met

Please let me know if C[C@@H](NC(=O)[C@@H](CC(=O)N1CCC(N2CCCCC2)CC1)N1C(=O)[C@@H](N2C(=O)OC[C@@H]2c2ccccc2)[C@H]1/C=C/c1cccc(I)c1)c1ccccc1 shows Ki below 1 nM.
not met

---

Reported pIC50 for target or system human V1a receptor (Homo sapiens, UniProt P37288), by entry.
Please keep in mind that pIC50 is minus log10 of the molar concentration; only the number is needed.

Look up pIC50 for this compound: CC(NC(=O)C(CC(=O)N1CCC(CN2CCCCC2)CC1)N1C(=O)C(N2C(=O)OCC2c2ccccc2)C1C=Cc1ccccc1)c1ccccc1 (stereo not drawn)
9.00

Look up pIC50 for this compound: CN(Cc1cccc(Cl)c1Cl)C(=O)C(CCC(=O)N1CCN(C2CCCCC2)CC1)N1C(=O)C(N2C(=O)OCC2c2ccccc2)C1C=Cc1ccccc1 (stereo not drawn) [Example 221B]
9.23

Look up pIC50 for this compound: O=C([C@@H](CSCc1ccccc1)N1C(=O)[C@@H](N2C(=O)OC[C@@H]2c2ccccc2)[C@H]1/C=C/c1ccccc1)N1CCC(CCN2CCCCC2)CC1
9.96
